Origin of values: patent US6472391B2

readout.kind: melting point

COc1cc2ncnc(N3CCN(C(=O)N(C)c4ccccc4)CC3)c2cc1OC
187 to 188 °C
CCn1c(=O)n(C)c2cc3c(N4CCN(C(=O)Nc5ccc(Oc6ccccc6)cc5)CC4)ncnc3cc21
250 to 251 °C
FC(F)(F)Oc1ccc2nccc(N3CCN(C(=S)NCc4ccccc4)CC3)c2c1
70 to 71 °C
COc1cc2ncnc(N3CCN(C(=S)NCCCCc4ccccc4)CC3)c2cc1OC
112 to 114 °C
COc1cc2nccc(N3CCN(C(=O)Nc4ccc(Oc5ccccc5)cc4)CC3)c2cc1OC
204 to 206 °C

Recorded result, COc1cc2ncnc(N3CCN(C(=O)NS(=O)(=O)c4ccc(Cl)cc4)CC3)c2cc1OC , melting point: 228 to 234 °C

Item: COc1cc2ncnc(N3CCN(C(=S)Nc4ccc(C)cc4)CC3)c2cc1OC | melting point: 204 to 205 °C

// melting point value for COc1cc2ncnc(N3CCCN(C(=O)Nc4ccc([N+](=O)[O-])cc4)CC3)c2cc1OC : 243 to 244 °C

* * *

Listing of recorded melting point by entry.

COc1cc2ncnc(N3CCN(C(=O)Nc4ccoc4)CC3)c2cc1OC [Compound 255]
213 to 215 °C
COc1cc2ncnc(N3CCN(C(=O)NCc4cccnc4)CC3)c2cc1OC [Compound 266]
188 to 189 °C
COc1cc2ncnc(N3CCN(C(=O)Nc4ccc(C(C)C)cc4)CC3)c2cc1OC [Compound 19]
252 to 254 °C

Record COC(=O)c1sccc1NC(=S)N1CCN(c2ncnc3cc(OC)c(OC)cc23)CC1 [Compound 260] , field melting point: 226 to 228 °C

Sample COc1cc2ncnc(N3CCN(C(=S)NCc4cccnc4)CC3)c2cc1OC [Compound 98] ; melting point observed: 104 to 106 °C

Noted for COc1cccc(CNC(=S)N2CCN(c3ncnc4cc(OC)c(OC)cc34)CC2)c1 [Compound 197] : its melting point reads 146 to 147 °C

* * *

Measured IC50 values are reported for all entries that follow.
subject.of.test: UniProt:P09619
Sequence (P09619 33-1106): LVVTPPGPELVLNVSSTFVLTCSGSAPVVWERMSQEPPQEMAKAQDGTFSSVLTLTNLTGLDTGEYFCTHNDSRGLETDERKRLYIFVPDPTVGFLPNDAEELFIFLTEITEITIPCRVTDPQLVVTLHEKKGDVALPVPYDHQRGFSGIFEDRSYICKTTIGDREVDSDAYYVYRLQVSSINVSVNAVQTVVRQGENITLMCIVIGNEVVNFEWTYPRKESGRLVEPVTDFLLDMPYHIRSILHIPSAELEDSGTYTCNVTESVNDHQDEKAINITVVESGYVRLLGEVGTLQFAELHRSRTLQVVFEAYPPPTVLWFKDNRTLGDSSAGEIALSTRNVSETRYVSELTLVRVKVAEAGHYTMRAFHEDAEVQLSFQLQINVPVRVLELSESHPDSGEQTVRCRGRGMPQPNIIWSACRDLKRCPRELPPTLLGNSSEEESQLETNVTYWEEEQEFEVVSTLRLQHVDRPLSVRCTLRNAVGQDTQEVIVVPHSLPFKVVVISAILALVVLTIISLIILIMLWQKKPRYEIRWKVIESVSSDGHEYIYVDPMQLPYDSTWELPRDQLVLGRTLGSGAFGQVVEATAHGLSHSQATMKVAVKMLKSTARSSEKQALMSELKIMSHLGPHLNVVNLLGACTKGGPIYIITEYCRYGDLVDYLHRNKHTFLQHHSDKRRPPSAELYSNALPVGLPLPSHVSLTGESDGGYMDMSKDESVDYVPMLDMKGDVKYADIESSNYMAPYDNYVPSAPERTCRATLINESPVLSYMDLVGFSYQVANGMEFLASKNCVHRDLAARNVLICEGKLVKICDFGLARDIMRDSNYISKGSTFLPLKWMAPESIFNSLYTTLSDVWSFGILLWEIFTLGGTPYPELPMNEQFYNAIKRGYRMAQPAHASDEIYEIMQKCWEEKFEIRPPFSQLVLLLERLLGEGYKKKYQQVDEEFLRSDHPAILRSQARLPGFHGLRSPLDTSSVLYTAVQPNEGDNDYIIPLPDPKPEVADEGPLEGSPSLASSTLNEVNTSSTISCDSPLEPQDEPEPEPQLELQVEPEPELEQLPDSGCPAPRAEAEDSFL
protocol.text: Inhibitory effect on phosphorylation of PDGF receptor
assay.conditions: CHO cells expressing human β-PDGF receptor
Description: Test Example 1 Inhibitory Effect on Phosphorylation of PDGF Receptor The test was carried out according to the method described in the literature [Dah-Shuhn et al., J. Biol. Chem., 266, 413-418 (1991)], using Chinese hamster ovary cells (CHO) wherein human β-PDGF receptor cDNA was introduced and expressed.
Lab book: enter the figure in nM, no units written.

Some solved cases for reference:
COc1cc2ncnc(N3CCN(C(=O)Nc4ccc(Cl)c(Cl)c4)CC3)c2cc1OC
710
COc1cc2ncnc(N3CCN(C(=O)NCc4ccc(Cl)cc4)CC3)c2cc1OC
410
Cc1ccc2c(N3CCN(C(=O)Nc4ccc(Oc5ccccc5)cc4)CC3)ncnc2c1
260
COc1cc2ncnc(N3CCN(C(=S)NCc4cccc(Cl)c4)CC3)c2cc1OC
770
COc1cc2ncnc(N3CCN(C(=O)Nc4ccc(-n5cccc5)nc4)CC3)c2cc1OC
1400
COc1cc2ncnc(N3CCN(C(=S)NCCc4ccc(Cl)cc4)CC3)c2cc1OC
1000

Looking up COc1cc2ncnc(N3CCN(C(=S)Nc4ccc(N(C)C)cc4)CC3)c2cc1OC , I found its IC50 recorded as 940

IC50 reported for this compound COc1cc2ncnc(N3CCN(C(=S)Nc4ccc(S(=O)(=O)N5CCCCC5)cc4)CC3)c2cc1OC : 460

* * *

Here the recorded melting point is given for each entry.

Short answer for CCc1cccc(NC(=S)N2CCN(c3ncnc4cc(OC)c(OC)cc34)CC2)c1 [Compound 149] : melting point was 195 to 197 °C

// field: melting point; key: COc1cc2c(N3CCN(C(=O)Nc4ccc(C#N)cc4)CC3)ncnc2cc1C [Compound 334] ; value = 242 to 243 °C

What the record says about COc1cc2ncnc(N3CCN(C(=O)Nc4cc(F)ccc4F)CC3)c2cc1OC [Compound 51] : melting point is 187 to 189 °C

Notebook: COc1cc2ncnc(N3CCN(C(=O)Nc4ccc(Cl)nc4)CC3)c2cc1OC [Compound 272] , melting point read as 238 to 240 °C

get_value(item= O=C(Nc1ccc(Oc2ccccc2)cc1)N1CCN(c2ccnc3cc(Cl)ccc23)CC1 [Compound 115] , readout=melting point) returns 159 to 161 °C

Short answer for COc1ccc2ncnc(N3CCN(C(=O)Nc4ccc(Oc5ccccc5)cc4)CC3)c2c1 [Compound 307] : melting point was 139 to 140 °C

Looking up COc1cc2ncnc(N3CCN(C(=O)NCc4ccc(OC(F)(F)F)cc4)CC3)c2cc1OC [Compound 203] , I see its melting point listed as 176 to 177 °C

CCOc1ccc(CNC(=O)N2CCN(c3ncnc4cc(OC)c(OC)cc34)CC2)cc1 [Compound 200] has a reported melting point of 176 to 177 °C

melting point for COc1cc2ncnc(N3CCN(C(=S)Nc4ccccc4)CC3)c2cc1OC [Compound 2] is 230 to 232 °C

The measured melting point associated with Fc1cc2ncnc(N3CCN(C(=S)NCc4cccnc4)CC3)c2cc1F [Compound 331] reads 177 to 178 °C

// COc1cc2ccnc(N3CCN(C(=S)NCc4cccnc4)CC3)c2cc1OC.Cl.Cl : melting point value = 195 to 197 °C

Form: molecule = COc1cc2ncnc(N3CCN(C(=S)NCc4ccc(C(C)(C)C)cc4)CC3)c2cc1OC [Compound 157] ; melting point = 104 to 105 °C

// melting point value for COc1cc2ncnc(N3CCN(C(=S)Nc4cccc(C(F)(F)F)c4)CC3)c2cc1OC [Compound 163] : 171 to 172 °C

* * *

readout.kind: melting point

Illustrative cases are given below, each with its answer.
CC(=O)c1ccc(NC(=O)N2CCN(c3ncnc4ccc(F)cc34)CC2)cc1
184 to 185 °C
COc1cc2ncnc(N3CCN(C(=S)Nc4ccc5c(c4)CCC5)CC3)c2cc1OC
207 to 210 °C

Please find the next molecule below.
Summary for this molecule, CCOc1cc2ncnc(N3CCN(C(=S)NCc4ccccc4)CC3)c2cc1OCC : melting point is 134 to 136 °C

* * *

subject.of.test: UniProt P09619
protocol.text: Inhibitory effect on phosphorylation of PDGF receptor
assay.conditions: CHO cells expressing human β-PDGF receptor
readout.kind: IC50 (nM)
// note: answer is a bare numeric in nM

Take a look at these entries with their results.
COc1cc2ncnc(N3CCN(C(=S)Nc4ccc(CNC(=O)OC(C)(C)C)cc4)CC3)c2cc1OC [Compound 228]
290
COc1cc2ncnc(N3CCN(C(=O)Nc4ccoc4)CC3)c2cc1OC [Compound 255]
660
S=C(NCc1cccnc1)N1CCN(c2ncnc3cc4ccccc4cc23)CC1 [Compound 366]
1470
Cc1ccc2ncnc(N3CCN(C(=O)Nc4ccc(Oc5ccccc5)cc4)CC3)c2c1 [Compound 292]
760

Please fill in: IC50 reported for CCOc1cc2ncnc(N3CCN(C(=O)Nc4ccc([N+](=O)[O-])cc4)CC3)c2cc1OCC [Compound 105] = 440

Quick note, IC50 for COc1cc2ncnc(N3CCN(C(=O)Nc4ccc(N=Nc5ccccc5)cc4)CC3)c2cc1OC [Compound 229] landed at 310

* * *

# melting point values compiled below

COc1cc2ncnc(N3CCN(C(=S)NCc4ccccc4)CC3)c2cc1OC
187 to 189 °C
COc1cccc2c(N3CCN(C(=O)Nc4ccc(Oc5ccccc5)cc4)CC3)ncnc12
108 to 109 °C

Looking up COc1cc2ncnc(N3CCN(C(=S)Nc4ccc(Cc5ccncc5)cc4)CC3)c2cc1OC , I see its melting point listed as 198 to 200 °C

The reported value for CCOc1cc2ncnc(N3CCN(C(=O)Nc4ccc(Br)cc4)CC3)c2cc1OC in terms of melting point is 210 to 212 °C
